- ASSAY TARGET: Tyrosine-protein kinase JAK2 (Homo sapiens, UniProt O60674)
- Sequence (O60674 whole entry): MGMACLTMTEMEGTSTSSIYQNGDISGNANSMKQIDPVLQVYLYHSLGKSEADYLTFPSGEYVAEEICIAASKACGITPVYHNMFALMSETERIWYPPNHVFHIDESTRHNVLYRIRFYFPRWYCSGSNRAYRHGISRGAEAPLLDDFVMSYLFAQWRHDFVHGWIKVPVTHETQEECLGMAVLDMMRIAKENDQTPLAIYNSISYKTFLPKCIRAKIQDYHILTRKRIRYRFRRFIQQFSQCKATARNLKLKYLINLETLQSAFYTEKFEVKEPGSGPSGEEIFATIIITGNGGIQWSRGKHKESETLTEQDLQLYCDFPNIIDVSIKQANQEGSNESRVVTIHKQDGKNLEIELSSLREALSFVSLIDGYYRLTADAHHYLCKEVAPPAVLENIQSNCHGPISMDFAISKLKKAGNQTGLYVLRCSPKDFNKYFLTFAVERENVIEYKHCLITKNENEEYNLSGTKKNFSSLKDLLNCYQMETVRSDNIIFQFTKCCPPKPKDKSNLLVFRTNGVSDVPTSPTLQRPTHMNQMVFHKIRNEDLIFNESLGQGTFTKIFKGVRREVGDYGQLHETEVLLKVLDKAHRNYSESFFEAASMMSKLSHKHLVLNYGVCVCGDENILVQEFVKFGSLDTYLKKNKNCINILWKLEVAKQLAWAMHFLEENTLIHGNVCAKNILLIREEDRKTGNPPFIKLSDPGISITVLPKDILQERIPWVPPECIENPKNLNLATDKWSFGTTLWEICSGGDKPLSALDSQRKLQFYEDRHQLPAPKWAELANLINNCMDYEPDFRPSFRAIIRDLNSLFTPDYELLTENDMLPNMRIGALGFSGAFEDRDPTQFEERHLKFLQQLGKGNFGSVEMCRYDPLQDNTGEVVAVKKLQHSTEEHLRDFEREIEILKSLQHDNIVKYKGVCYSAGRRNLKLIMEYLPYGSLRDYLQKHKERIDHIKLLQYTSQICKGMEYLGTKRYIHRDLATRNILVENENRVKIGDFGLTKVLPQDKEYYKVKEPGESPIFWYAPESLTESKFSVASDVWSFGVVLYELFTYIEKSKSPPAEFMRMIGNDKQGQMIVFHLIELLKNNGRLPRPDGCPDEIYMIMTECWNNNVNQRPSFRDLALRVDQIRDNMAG
- TEST NAME: biochemical
- Description: Binding affinity to wild type JAK2 JH1 (unknown origin) expressed in baculovirus infected Sf9 cells assessed as dissociation constant measured upto 30 mins in presence of tracer by competitive fluorescence polarization assay
READOUT TYPE: pKd
Hey, just a heads up that pKd is the negative log base 10 of the concentration in molar.

See these solved cases before continuing.
INSERT INTO measurements (record_smiles, readout_type, assay_result) VALUES
  ('CNC(=O)c1ccc(Nc2nc(N)n(C(=O)Nc3ccc(-c4cc(OCc5ccccc5)cc(C(=O)O)c4)cc3)n2)cc1', 'pKd', 5.23),
  ('Nc1nc(Nc2ccc(S(N)(=O)=O)cc2)nn1C(=O)Nc1ccc(-c2ccnc(C(=O)O)c2)cc1', 'pKd', 5.09),
  ('CNC(=O)c1ccc(Nc2nc(N)n(C(=O)Nc3ccc(-c4ccc(OCc5ccccc5)c(C(=O)O)c4)cc3)n2)cc1', 'pKd', 5.17);

INPUT: Dear colleague, I am looking for the recorded pKd of the following compound: Nc1nc(Nc2ccc(S(N)(=O)=O)cc2)nn1C(=O)Nc1ccc(-c2cc(OCc3ccccc3)cc(C(=O)O)c2)cc1
OUTPUT: 5.47

====

// values below are reported permeability
- DETAILS: pampa, pH 7.4, 18 h
- Description: Permeability of the compound in PBS buffer at pH 7.4 measured after 18 hrs by UV plate reader based PAMPA assay

INSERT INTO assay_data (record_smiles, assay_result) VALUES
  ('CNC(=O)c1ccc(Nc2nc(N)n(C(=O)Nc3ccc(-c4ccc(OCc5ccccc5)c(C(=O)O)c4)cc3)n2)cc1', '0.24 10^-6 cm/s'),
  ('CNC(=O)c1ccc(Nc2nc(N)n(C(=O)Nc3ccc(-c4cc(OCc5ccccc5)cc(C(=O)O)c4)cc3)n2)cc1', '0.971 10^-6 cm/s'),
  ('Nc1nc(Nc2ccc(S(N)(=O)=O)cc2)nn1C(=O)Nc1ccc(-c2cccc(C(=O)O)c2)cc1', '0.015 10^-6 cm/s'),
  ('COC(=O)c1cccc(-c2ccc(NC(=O)n3nc(Nc4ccc(S(N)(=O)=O)cc4)nc3N)cc2)c1', '0.09 10^-6 cm/s');

INPUT: Dear colleague, I am looking for the recorded permeability of the following compound: Nc1nc(Nc2ccc(S(N)(=O)=O)cc2)nn1C(=O)Nc1ccc(-c2cc(OCc3ccccc3)cc(C(=O)O)c2)cc1
OUTPUT: 1.15 10^-6 cm/s

====

// values below are reported Kd
- ASSAY TARGET: Tyrosine-protein kinase JAK2 (Homo sapiens, UniProt O60674)
- TEST NAME: biochemical
- Description: Binding affinity to JAK2 JH2 (unknown origin) expressed in baculovirus infected Sf9 cells assessed as dissociation constant measured upto 30 mins in presence of tracer by competitive fluorescence polarization assay
Number in nM, nothing else.

See these solved cases before continuing.
INSERT INTO results (record_smiles, assay_target, assay_result) VALUES
  ('Nc1nc(Nc2ccc(S(N)(=O)=O)cc2)nn1C(=O)Nc1ccc(-c2cncc(C(=O)O)c2)cc1', 'Tyrosine-protein kinase JAK2 (Homo sapiens, UniProt O60674)', 652),
  ('Nc1nc(Nc2ccc(S(N)(=O)=O)cc2)nn1C(=O)Nc1ccc(-c2cccc(C(=O)O)c2)cc1', 'Tyrosine-protein kinase JAK2 (Homo sapiens, UniProt O60674)', 129),
  ('Nc1nc(Nc2ccc(S(N)(=O)=O)cc2)nn1C(=O)Nc1ccc(-c2ccc(C(=O)O)cc2)cc1', 'Tyrosine-protein kinase JAK2 (Homo sapiens, UniProt O60674)', 155),
  ('Nc1nc(Nc2ccc(S(N)(=O)=O)cc2)nn1C(=O)Nc1ccc(-c2cc(OCc3ccccc3)cc(C(=O)O)c2)cc1', 'Tyrosine-protein kinase JAK2 (Homo sapiens, UniProt O60674)', 75),
  ('Nc1nc(Nc2ccc(S(N)(=O)=O)cc2)nn1C(=O)Nc1ccc(-c2cccc(C(=O)O)n2)cc1', 'Tyrosine-protein kinase JAK2 (Homo sapiens, UniProt O60674)', 934),
  ('CNC(=O)c1ccc(Nc2nc(N)n(C(=O)Nc3ccc(-c4cc(OCc5ccccc5)cc(C(=O)O)c4)cc3)n2)cc1', 'Tyrosine-protein kinase JAK2 (Homo sapiens, UniProt O60674)', 44),
  ('Nc1nc(Nc2ccc(S(N)(=O)=O)cc2)nn1C(=O)Nc1ccc(-c2cncc(C(=O)O)n2)cc1', 'Tyrosine-protein kinase JAK2 (Homo sapiens, UniProt O60674)', 1400);

Now turn to the next molecule.
INPUT: Field: Kd (Tyrosine-protein kinase JAK2 (Homo sapiens, UniProt O60674)). Entry: Nc1nc(Nc2ccc(S(N)(=O)=O)cc2)nn1C(=O)Nc1ccc(-c2ccnc(C(=O)O)c2)cc1
OUTPUT: 394
